Data credit: paper PMC6383769

testedSystem: human D4 (D4.4 variant) (Homo sapiens, UniProt P21917)
protocolText: biochemical
measuredQuantity: pKi
One number for each entry, as −log10 of the molar value.

Consider the following illustrative entries.
CC1(C)CCN(CC(=O)NC[C@@H]2CCC[C@H]2C2CC2)C1 ... 6.04
Cc1cccc(CCNCc2ccn(-c3ccccc3)n2)c1 ... 6.74
C[C@@H]1CCCN(C(C)(C)CNc2nc(C3CC3)ns2)C1 ... 6.09
O=C(CN1C[C@@H](O)C[C@@H]1C1CC1)Nc1ccc(Br)cc1 ... 6.09
CC(C)N1C[C@H](C)[C@H](NC(=O)c2cccc3cc[nH]c23)C1 ... 6.68
CCC(CC)[C@@H](O)CNCc1cnc(-c2ccccc2F)s1 ... 6.12

# map each compound to its pKi
1. C=Cn1cc(CNC[C@@H](CO)Cc2ccccc2Br)cn1
2. CC(C)N1C[C@H](C)[C@H](NC(=O)N2Cc3ccccc3[C@@H]2C)C1
3. O[C@]1(CNCc2cnn(-c3ccc(Br)cc3)c2)CCSC1
4. OC[C@H](Cc1ccc(F)cc1)NCc1ccn(-c2ccccc2)n1
5. C[C@H](N[C@H](CO)Cc1ccccc1)c1cc2c(s1)CCC2

Result:
1. 6.57
2. 6.17
3. 6.52
4. 6.60
5. 6.72

Q: Look up pKi for this compound: `C[C@H]1CN(C2CC2)C[C@H]1NC(=O)c1cc2cc([N+](=O)[O-])ccc2s1`
Result: 6.25
